assayedSystem: human apelin receptor (APJ, AGTRL-one, APLNR) (Homo sapiens)
Sequence (P35414 1-380): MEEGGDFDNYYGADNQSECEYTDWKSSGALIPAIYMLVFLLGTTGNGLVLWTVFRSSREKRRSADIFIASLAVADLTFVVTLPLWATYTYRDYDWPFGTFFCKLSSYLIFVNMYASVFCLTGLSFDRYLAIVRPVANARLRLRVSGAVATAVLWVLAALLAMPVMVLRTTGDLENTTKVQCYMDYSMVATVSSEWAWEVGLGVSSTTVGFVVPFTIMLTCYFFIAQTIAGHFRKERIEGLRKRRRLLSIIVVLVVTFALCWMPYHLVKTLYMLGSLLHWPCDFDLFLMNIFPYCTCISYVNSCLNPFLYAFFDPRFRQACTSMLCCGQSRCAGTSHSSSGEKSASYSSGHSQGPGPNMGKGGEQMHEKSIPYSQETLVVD
assayOverview: cell-based cAMP TR-FRET assay of apelin receptor activation
settings: CHO cells expressing human APJ, forskolin-stimulated cAMP, 0.5 h incubation, 50% of control (apelin-13, 1 nM) response; read-out: Potency Category (EC50)
pEC50: −log10 of the molar value.
Catalogue of pEC50 values

COc1cc2nc(NC(=O)C(Oc3ccc(C#N)cc3)c3ccc(S(=O)(=O)C(C)C)cc3)sc2cc1OC (stereo not drawn)    > 7.30

Challenge: Name the reported pEC50 value associated with the compound CCS(=O)(=O)c1ccc(C(Oc2ccc([N+](=O)[O-])cc2)C(=O)Nc2nc3cc(OC)c(OC)cc3s2)cc1 (stereo not drawn)
Response given: > 7.30

Challenge: Name the reported pEC50 value associated with the compound COc1cc2nc(NC(=O)C(Oc3ccc(C#N)cc3)c3ccc(OCCN4CCCC4)cc3)sc2cc1OC (stereo not drawn)
Response given: 6.30 to 6.70
